# Tested on: Summer wheat
# ASSAY PROTOCOL: Example C: Herbicidal post-emergence action, use of safeners (crop plant damage)
# Format: in vivo
# CONDITION NOTES: 10 days after application; 25 g of a.i./ha; no safener
PARAMETER: Summer wheat observed (%)

COMPOUND | TEST TARGET | UNITS | VALUE OBSERVED
CCOC1CCCC2(CC1)NC(=O)C(c1c(C)cc(C)cc1C1CC1)=C2O (centres unmarked) | Summer wheat | % | 65
Cc1cc(C)c(C2=C(O)C(C)(C)NC2=O)c(C2CC2)c1 | Summer wheat | % | 25
CCOC(=O)OC1=C(c2c(C3CC3)cc(C)cc2C2CC2)C(=O)NC1(C)C | Summer wheat | % | 30
CCOC(=O)OC1=C(c2c(C)cc(C)cc2C2CC2)C(=O)NC12CCC(OC)CC2 (single isomer, unassigned) | Summer wheat | % | 60
CCCCOC1CCCC2(C1)NC(=O)C(c1c(Cl)cc(C)cc1C1CC1)=C2O (centres unmarked) | Summer wheat | % | 60

All values here come from patent US8541617B2.
